- test target: Sodium-dependent dopamine transporter (Rattus norvegicus)
- Sequence (P23977 whole entry): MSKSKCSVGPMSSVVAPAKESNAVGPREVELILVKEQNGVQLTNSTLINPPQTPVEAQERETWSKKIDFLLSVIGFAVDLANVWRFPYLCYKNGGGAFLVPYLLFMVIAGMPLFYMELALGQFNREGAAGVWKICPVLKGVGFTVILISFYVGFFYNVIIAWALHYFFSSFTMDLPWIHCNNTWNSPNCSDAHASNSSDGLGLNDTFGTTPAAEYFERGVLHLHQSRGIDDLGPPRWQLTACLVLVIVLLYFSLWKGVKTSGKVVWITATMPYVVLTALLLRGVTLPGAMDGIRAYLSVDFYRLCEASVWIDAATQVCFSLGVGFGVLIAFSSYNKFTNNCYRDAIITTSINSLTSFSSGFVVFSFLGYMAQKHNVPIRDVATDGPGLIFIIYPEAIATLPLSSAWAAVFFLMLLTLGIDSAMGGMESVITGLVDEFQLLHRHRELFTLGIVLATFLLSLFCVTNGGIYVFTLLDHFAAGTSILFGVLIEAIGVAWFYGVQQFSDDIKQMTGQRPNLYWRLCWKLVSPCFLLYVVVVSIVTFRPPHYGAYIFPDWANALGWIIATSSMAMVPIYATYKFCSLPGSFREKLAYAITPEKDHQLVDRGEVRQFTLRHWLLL
- protocol details: Inhibition of [3H]dopamine uptake in rat caudate putamen tissue.
readout: pIC50
Give only the number. pIC50 is defined as minus log10 of concentration in molar units.

Consider the compound shown here: CN1[C@@H]2CC[C@H]1C[C@@H](OC(c1ccc(F)cc1)c1cccc(C(F)(F)F)c1)C2 (stereo partly specified) What is its recorded pIC50?
6.74

What do you get for Cc1cccc(C(O[C@H]2C[C@H]3CC[C@@H](C2)N3C)c2ccc(F)cc2)c1 (stereo partly specified) ?
6.97

Further, for Cc1cccc(C(O[C@H]2C[C@H]3CC[C@@H](C2)N3C)c2ccccc2)c1 (stereo partly specified) ?
6.65

Param item: CN1[C@@H]2CC[C@H]1C[C@@H](OC(c1ccc(F)cc1)c1ccc(Br)cc1)C2 (stereo partly specified)
7.57

Now this one: CN1[C@@H]2CC[C@H]1C[C@@H](OC(c1ccc(F)cc1)c1cccc(F)c1)C2 (stereo partly specified)
6.86

Check CN1[C@@H]2CC[C@H]1C[C@@H](OC(c1ccc(F)cc1)c1cccc(Cl)c1)C2 (stereo partly specified) too.
6.91

Note, next up: CN1[C@@H]2CC[C@H]1C[C@@H](OC(c1ccc(F)cc1)c1cccc(Br)c1)C2 (stereo partly specified)
6.75

Now try CN1[C@@H]2CC[C@H]1C[C@@H](OC(c1ccccc1)c1cccc([N+](=O)[O-])c1)C2 (stereo partly specified) .
6.10

// next record CN1[C@@H]2CC[C@H]1C[C@@H](OC(c1ccccc1)c1ccccc1Cl)C2 (stereo partly specified)
6.01

Repeat for the following compound: CN1[C@@H]2CC[C@H]1C[C@@H](OC(c1ccccc1)c1cccc(Br)c1)C2 (stereo partly specified)
6.98

How about this compound: CN1[C@@H]2CC[C@H]1C[C@@H](OC(c1ccccc1)c1ccc(F)c(F)c1)C2 (stereo partly specified)
6.74
